# system_tested: SARM1 (50-724) (Homo sapiens)
# Sequence (Q6SZW1 50-724): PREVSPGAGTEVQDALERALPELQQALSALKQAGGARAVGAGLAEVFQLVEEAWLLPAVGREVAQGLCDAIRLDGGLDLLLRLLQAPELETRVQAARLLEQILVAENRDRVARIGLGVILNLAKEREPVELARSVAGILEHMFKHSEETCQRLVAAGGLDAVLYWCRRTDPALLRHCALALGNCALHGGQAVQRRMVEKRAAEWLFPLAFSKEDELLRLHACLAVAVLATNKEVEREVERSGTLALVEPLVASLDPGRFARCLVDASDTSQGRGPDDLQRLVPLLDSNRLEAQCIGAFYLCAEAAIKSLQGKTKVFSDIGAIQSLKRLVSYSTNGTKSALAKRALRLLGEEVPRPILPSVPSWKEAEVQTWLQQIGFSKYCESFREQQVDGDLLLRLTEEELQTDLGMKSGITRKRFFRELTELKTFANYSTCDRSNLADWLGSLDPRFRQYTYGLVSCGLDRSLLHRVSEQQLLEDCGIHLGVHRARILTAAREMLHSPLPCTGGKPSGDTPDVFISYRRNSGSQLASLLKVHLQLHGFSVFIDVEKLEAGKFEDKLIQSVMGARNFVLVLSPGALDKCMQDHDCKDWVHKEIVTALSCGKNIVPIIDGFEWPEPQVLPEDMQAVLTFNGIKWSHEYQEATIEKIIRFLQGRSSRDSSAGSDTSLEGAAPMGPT
# procedure_details: biochemical
pIC50: −log10 of the molar value.
reported_metric: pIC50

[
  {
    "compound": "CC(Nc1ccc2c(C(F)F)n(CC(N)=O)nc2c1)c1nc(Cl)c(Cl)s1 (racemic) [Compound 355]",
    "pIC50": "> 7.00"
  }
]

# context switch: different compound, same pIC50
What value of pIC50 on SARM1 (50-724) (Homo sapiens) does `Cn1ncc2cc(NS(=O)(=O)c3cccc(Cl)c3Cl)ccc21` have?
6.30 to 7.00

---

# system_tested: SARM1 (50-724) (Homo sapiens)
# procedure_details: biochemical
reported_metric: IC50

Below: 3 molecules and their reported IC50.
[
  {
    "molecule": "CCn1nc(C(C)Nc2ccc3cc[nH]c(=O)c3c2)c(Cl)c1C (racemic)",
    "IC50": "< 0.1 µM"
  },
  {
    "molecule": "COC(=O)Cc1ccc(NS(=O)(=O)c2cccc(Cl)c2Cl)cc1",
    "IC50": "0.1 to 0.5 µM"
  },
  {
    "molecule": "Cc1c(F)cccc1S(=O)(=O)Nc1ccc2c(c1)CCCC2",
    "IC50": "0.5 to 1 µM"
  }
]

# context switch: different molecule, same IC50
Please give the measured IC50 for this molecule: CC(Nc1ccc2cc[nH]c(=O)c2c1)c1nc(Cl)n(C)c1Cl (racemic)
0.1 to 0.5 µM

---

# system_tested: SARM1 (50-724) (Homo sapiens)
# Sequence (Q6SZW1 50-724): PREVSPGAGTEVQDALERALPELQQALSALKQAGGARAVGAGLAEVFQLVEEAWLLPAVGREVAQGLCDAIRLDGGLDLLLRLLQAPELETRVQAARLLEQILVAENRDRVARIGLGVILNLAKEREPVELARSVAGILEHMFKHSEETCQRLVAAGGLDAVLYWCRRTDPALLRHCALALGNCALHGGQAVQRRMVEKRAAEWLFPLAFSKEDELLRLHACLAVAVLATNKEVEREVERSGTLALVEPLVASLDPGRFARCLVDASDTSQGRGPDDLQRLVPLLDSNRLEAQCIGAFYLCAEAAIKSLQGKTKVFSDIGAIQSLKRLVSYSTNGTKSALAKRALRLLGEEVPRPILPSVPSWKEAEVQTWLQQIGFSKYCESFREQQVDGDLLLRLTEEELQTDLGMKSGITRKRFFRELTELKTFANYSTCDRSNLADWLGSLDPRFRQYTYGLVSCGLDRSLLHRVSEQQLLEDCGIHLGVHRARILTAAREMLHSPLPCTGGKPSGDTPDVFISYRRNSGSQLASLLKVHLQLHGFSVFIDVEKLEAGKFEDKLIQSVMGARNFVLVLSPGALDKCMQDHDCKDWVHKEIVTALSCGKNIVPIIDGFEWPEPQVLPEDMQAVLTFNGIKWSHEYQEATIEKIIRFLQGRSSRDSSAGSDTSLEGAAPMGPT
# procedure_details: biochemical
pIC50: −log10 of the molar value.
reported_metric: pIC50

Please give the measured pIC50 for this compound: Cc1nn(CC(N)=O)c(=O)c2cc(NC(C)c3nc(Cl)c(Cl)s3)ccc12 (single isomer, unassigned) [Compound 358]
< 6.00

Please give the measured pIC50 for this compound: CC(Nc1ccc2c(cnn2C)c1)c1cccc(Cl)c1Cl (racemic) [Example 141]
< 6.00

Please give the measured pIC50 for this compound: COc1cc2cc(NS(=O)(=O)c3cccc(Cl)c3Cl)ccc2cn1 [Compound 89]
6.30 to 7.00

Please give the measured pIC50 for this compound: Cc1c2c(F)cc(NC(C)c3nc(Cl)c(Cl)s3)cc2nn1CC(N)=O (single isomer, unassigned) [Compound 390]
< 6.00

Please give the measured pIC50 for this compound: Cc1c2ccc(NC(C)(C)c3nc(Cl)c(Cl)s3)cc2nn1CC(N)=O [Example 360]
> 7.00

---

# system_tested: SARM1 (50-724) (Homo sapiens, UniProt Q6SZW1)
# procedure_details: biochemical
pIC50: −log10 of the molar value.
reported_metric: pIC50

Below: 5 compounds and their reported pIC50.
[
  {
    "compound": "CC(Nc1ccc2nc[nH]c(=O)c2n1)c1ccc(F)c(Cl)c1Cl (racemic) [Compound 384]",
    "system_tested": "SARM1 (50-724) (Homo sapiens, UniProt Q6SZW1)",
    "pIC50": "6.30 to 7.00"
  },
  {
    "compound": "CC1(C)CN(C(=O)C2(C(N)=O)CC2)c2cc(NS(=O)(=O)c3cccc(Cl)c3Cl)ccc21 [Compound 313]",
    "system_tested": "SARM1 (50-724) (Homo sapiens, UniProt Q6SZW1)",
    "pIC50": "> 7.00"
  },
  {
    "compound": "CC1(C)CN(C(=O)C2CCOCC2)c2cc(NS(=O)(=O)c3cccc(Cl)c3Cl)ccc21 [Compound 284]",
    "system_tested": "SARM1 (50-724) (Homo sapiens, UniProt Q6SZW1)",
    "pIC50": "> 7.00"
  },
  {
    "compound": "CC1(C)C(=O)N(CC(=O)N2CCCCC2)c2cc(NS(=O)(=O)c3cccc(Cl)c3Cl)ccc21 [Example 286]",
    "system_tested": "SARM1 (50-724) (Homo sapiens, UniProt Q6SZW1)",
    "pIC50": "> 7.00"
  },
  {
    "compound": "CC1(C)C(=O)Nc2cc(NS(=O)(=O)c3c(Cl)ccc(Cl)c3Cl)ccc21 [Compound 209]",
    "system_tested": "SARM1 (50-724) (Homo sapiens, UniProt Q6SZW1)",
    "pIC50": "> 7.00"
  }
]

Please give the measured pIC50 for this compound: CC(Nc1ccc2cc[nH]c(=O)c2c1)c1cc(Cl)ccc1Cl (racemic) [Example 132]
> 7.00

Please give the measured pIC50 for this compound: CC1(C)CCCCN1S(=O)(=O)Nc1ccc2c(c1)C(=O)NCC2 [Example 168]
< 6.00

Please give the measured pIC50 for this compound: Cc1c2ccc(NC(C)c3nc(Cl)c(Cl)s3)cc2nn1CCO (racemic) [Compound 307]
> 7.00

---

# system_tested: SARM1 (50-724) (Homo sapiens)
# procedure_details: biochemical
reported_metric: IC50

[
  {
    "compound": "O=C1NCCc2ccc(NS(=O)(=O)c3cc(F)c(F)c(F)c3)cc21",
    "data_value": "> 1000 nM"
  }
]

Please give the measured IC50 for this compound: Cc1nc(C(C)Nc2ccc3c(C)n(CC(N)=O)nc3c2)sc1Cl (single isomer, unassigned) [Compound 363]
> 1000 nM

Please give the measured IC50 for this compound: Cc1nn(CC(N)=O)c(=O)c2cc(NC(C)c3nc(Cl)c(Cl)s3)ccc12 (single isomer, unassigned) [Compound 357]
< 100 nM

Please give the measured IC50 for this compound: CC(Nc1ccc2nc[nH]c(=O)c2n1)c1c(Cl)ccc(F)c1Cl (racemic) [Compound 259]
< 100 nM

Please give the measured IC50 for this compound: COc1nccc2ccc(NC(C)c3c(Cl)nn(C)c3Cl)cc12 (racemic)
100 to 500 nM

Please give the measured IC50 for this compound: [2H]C(C)(Nc1ccc2c(C)n(CC(N)=O)nc2c1)c1nc(Cl)c(Cl)s1 (single isomer, unassigned) [Compound 377]
< 100 nM

Please give the measured IC50 for this compound: CC(C(N)=O)c1ccc(NS(=O)(=O)c2cccc(Cl)c2Cl)cc1 (racemic)
< 100 nM

These data points were gathered from patent US20250320184A1.
